- Species on record: Rattus norvegicus
- assay: In vitro ability to inhibit the peroxidation of rat hepatic microsomal lipids
- Format: functional
- condition_info: Liver
test_readout: pIC50
pIC50 here is simply -log10 of the concentration when that concentration is written in mol/L.

The compound listed as CCOC(=O)[C@H](CS)NC(=O)Cc1ccccc1Nc1c(Cl)cccc1Cl has a reported pIC50 of 4.57

The compound listed as CCOC(=O)[C@H](CS)NC(=O)Cc1c(C)n(C(=O)c2ccc(Cl)cc2)c2ccc(OC)cc12 has a reported pIC50 of 4.29

The compound listed as CCOC(=O)[C@H](CS)NC(=O)C(C)c1ccc(CC(C)C)cc1 (stereo not given in full) has a reported pIC50 of 4.42

The compound listed as CCOC(=O)[C@H](CS)NC(=O)C(C)c1cccc(C(=O)c2ccccc2)c1 (stereo not given in full) has a reported pIC50 of 3.19

The compound listed as CCOC(=O)[C@H](CS)NC(=O)C(C)c1ccc2cc(OC)ccc2c1 (stereo not given in full) has a reported pIC50 of 4.55
